This collection of values is drawn from the supplement of paper PMC11246515.

experiment: total protein half-life in vivo (active degradation + dilution); higher = more stable protein; conditions: wild type E. coli NCM3722; growth: P-lim chemostat; doubling time 12 h
attributeMeasured: total protein half-life in vivo

[Q] Identify the reported total protein half-life in vivo for the following entry. MSRPTIIINDLDAERIDILLEQPAYAGLPIADALNAELDRAQMCSPEEMPHDVVTMNSRVKFRNLSDGEVRVRTLVYPAKMTDSNTQLSVMAPVGAALLGLRVGDSIHWELPGGVATHLEVLELEYQPEAAGDYLL [P0AFW4]
[A] 2.53 h

[Q] Identify the reported total protein half-life in vivo for the following entry. MGKSIVVVSAVNFTTGGPFTILKKFLAATNNKENVSFIALVHSAKELKESYPWVKFIEFPEVKGSWLKRLHFEYVVCKKLSKELNATHWICLHDITANVVTKKRYVYCHNPAPFYKGILFREILMEPSFFLFKMLYGLIYKINIKKNTAVFVQQFWMKEKFIKKYSINNIIVSRPEIKLSDKSQLTDDDSQFKNNPSELTIFYPAVPRVFKNYELIISAARKLKEQSNIKFLLTISGTENAYAKYIISLAEGLDNVHFLGYLDKEKIDHCYNISDIVCFPSRLETWGLPLSEAKERGKWVLASDFPFTRETLGSYEKKAFFDSNNDDMLVKLIIDFKKGNLKKDISDANFIYRNENVLVGFDELVNFITEEH
[A] 14.9 h

[Q] Identify the reported total protein half-life in vivo for the following entry. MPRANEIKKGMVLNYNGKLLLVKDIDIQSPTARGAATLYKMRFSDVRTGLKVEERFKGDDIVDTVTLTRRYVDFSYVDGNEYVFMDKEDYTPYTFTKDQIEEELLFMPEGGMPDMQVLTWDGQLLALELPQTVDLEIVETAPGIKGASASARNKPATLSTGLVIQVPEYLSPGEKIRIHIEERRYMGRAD [P0A6N8]
[A] 9.67 h

[Q] Identify the reported total protein half-life in vivo for the following entry. MYVAVKGGEKAIDAAHALQESRRRGDTDLPELSVAQIEQQLNLAVDRVMTEGGIADRELAALALKQASGDNVEAIFLLRAYRTTLAKLAVSEPLDTTGMRLERRISAVYKDIPGGQLLGPTYDYTHRLLDFTLLANGEAPTLTTADSEQQPSPHVFSLLARQGLAKFEEDSGAQPDDITRTPPVYPCSRSSRLQQLMRGDEGYLLALAYSTQRGYGRNHPFAGEIRSGYIDVSIVPEELGFAVNVGELLMTECEMVNGFIDPPGEPPHFTRGYGLVFGMSERKAMAMALVDRALQAPEYGEHATGPAQDEEFVLAHADNVEAAGFVSHLKLPHYVDFQAELELLKRLQQEQNHG
[A] 1.36 h

[Q] Identify the reported total protein half-life in vivo for the following entry. MIPLQHGLILAAILFVLGLTGLVIRRNLLFMLIGLEIMINASALAFVVAGSYWGQTDGQVMYILAISLAAAEASIGLALLLQLHRRRQNLNIDSVSEMRG [P0AFE4]
[A] 13.1 h

[Q] Identify the reported total protein half-life in vivo for the following entry. MKFELDTTDGRARRGRLVFDRGVVETPCFMPVGTYGTVKGMTPEEVEATGAQIILGNTFHLWLRPGQEIMKLHGDLHDFMQWKGPILTDSGGFQVFSLGDIRKITEQGVHFRNPINGDPIFLDPEKSMEIQYDLGSDIVMIFDECTPYPADWDYAKRSMEMSLRWAKRSRERFDSLGNKNALFGIIQGSVYEDLRDISVKGLVDIGFDGYAVGGLAVGEPKADMHRILEHVCPQIPADKPRYLMGVGKPEDLVEGVRRGIDMFDCVMPTRNARNGHLFVTDGVVKIRNAKYKSDTGPLDPECDCYTCRNYSRAYLHHLDRCNEILGARLNTIHNLRYYQRLMAGLRKAIEEGKLESFVTDFYQRQGREVPPLNVD [P0A847]
[A] 13.7 h

* * *

Hi there, I'd appreciate the recorded total protein half-life in vivo for every entry that follows.
assay: total protein half-life in vivo (active degradation + dilution); higher = more stable protein; conditions: wild type E. coli NCM3722; growth: C-lim chemostat; doubling time 12 h

[Q] Identify the reported total protein half-life in vivo for the following entry. MVRKGCNSLVRAEKILTHIAWVGMASYMELLNKFQYPKSSLLNLLNVMVDCGFLIKNKNGYYSLGIKNYELGCQALHRQNIFEVTKRPMQELSLKSGLVCHLGAMESISAIYLDKIESPDSVPTSKSWIGKKLELHITALGKALLAWKTREELDYFLEALTLTPHTRNTFTDKKLFLEELQKTRLRGWAIDNEESTYGAVCLSMPVFNMYNRVNYAISLSGDPVVYSGNKIDSYLELLRKCAEQISYGLGYRNENEHLRKGN
[A] 2.7 h

[Q] Identify the reported total protein half-life in vivo for the following entry. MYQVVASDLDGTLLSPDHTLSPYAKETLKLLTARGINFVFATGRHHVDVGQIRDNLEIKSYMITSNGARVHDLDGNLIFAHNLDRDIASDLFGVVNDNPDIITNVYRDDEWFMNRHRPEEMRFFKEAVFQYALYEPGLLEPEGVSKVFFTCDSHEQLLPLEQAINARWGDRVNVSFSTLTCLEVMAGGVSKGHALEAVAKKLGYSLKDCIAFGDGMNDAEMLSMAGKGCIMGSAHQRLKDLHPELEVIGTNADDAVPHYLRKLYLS
[A] 8.98 h

[Q] Identify the reported total protein half-life in vivo for the following entry. MSTTWFVGADWLAEHIDDPEIQIIDARMASPGQEDRNVAQEYLNGHIPGAVFFDIEALSDHTSPLPHMLPRPETFAVAMRELGVNQDKHLIVYDEGNLFSAPRAWWMLRTFGVEKVSILGGGLAGWQRDDLLLEEGAVELPEGEFNAAFNPEAVVKVTDVLLASHENTAQIIDARPAARFNAEVDEPRPGLRRGHIPGALNVPWTELVREGELKTTDELDAIFFGRGVSYDKPIIVSCGSGVTAAVVLLALATLDVPNVKLYDGAWSEWGARADLPVEPVK
[A] 9.46 h

* * *

Hi there, I'd appreciate the recorded total protein half-life in vivo for every entry that follows.
test: total protein half-life in vivo (active degradation + dilution); higher = more stable protein; details: wild type E. coli NCM3722; growth: C-lim chemostat; doubling time 12 h
Express the result in h but write the number alone.

[Q] Identify the reported total protein half-life in vivo for the following entry. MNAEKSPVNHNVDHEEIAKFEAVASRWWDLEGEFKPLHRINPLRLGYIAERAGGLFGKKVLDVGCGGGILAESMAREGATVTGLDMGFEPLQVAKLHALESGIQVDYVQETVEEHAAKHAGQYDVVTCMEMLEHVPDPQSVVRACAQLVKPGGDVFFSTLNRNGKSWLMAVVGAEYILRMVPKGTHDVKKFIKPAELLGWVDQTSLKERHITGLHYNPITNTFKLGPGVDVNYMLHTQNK
[A] 6.69

[Q] Identify the reported total protein half-life in vivo for the following entry. MPYKTKSDLPESVKHVLPSHAQDIYKEAFNSAWDQYKDKEDRRDDASREETAHKVAWAAVKHEYAKGDDDKWHKKS [P0AE63]
[A] 6.09

[Q] Identify the reported total protein half-life in vivo for the following entry. MKIGIIGAMEEEVTLLRDKIENRQTISLGGCEIYTGQLNGTEVALLKSGIGKVAAALGATLLLEHCKPDVIINTGSAGGLAPTLKVGDIVVSDEARYHDADVTAFGYEYGQLPGCPAGFKADDKLIAAAEACIAELNLNAVRGLIVSGDAFINGSVGLAKIRHNFPQAIAVEMEATAIAHVCHNFNVPFVVVRAISDVADQQSHLSFDEFLAVAAKQSSLMVESLVQKLAHG [P0AF12]
[A] 12.6

[Q] Identify the reported total protein half-life in vivo for the following entry. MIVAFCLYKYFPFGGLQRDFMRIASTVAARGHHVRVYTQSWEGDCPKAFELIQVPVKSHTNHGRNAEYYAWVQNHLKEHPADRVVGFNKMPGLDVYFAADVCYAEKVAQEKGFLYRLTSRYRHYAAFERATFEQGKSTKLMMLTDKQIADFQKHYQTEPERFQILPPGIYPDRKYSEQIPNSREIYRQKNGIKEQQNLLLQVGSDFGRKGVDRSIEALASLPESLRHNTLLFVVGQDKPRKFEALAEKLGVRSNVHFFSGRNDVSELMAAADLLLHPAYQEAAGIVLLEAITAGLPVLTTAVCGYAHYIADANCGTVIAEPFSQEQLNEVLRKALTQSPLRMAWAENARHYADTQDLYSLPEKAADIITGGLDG
[A] 11.8

[Q] Identify the reported total protein half-life in vivo for the following entry. MAANAFVRARIDEDLKNQAADVLAGMGLTISDLVRITLTKVAREKALPFDLREPNQLTIQSIKNSEAGIDVHKAKDADDLFDKLGI
[A] 0.789

[Q] Identify the reported total protein half-life in vivo for the following entry. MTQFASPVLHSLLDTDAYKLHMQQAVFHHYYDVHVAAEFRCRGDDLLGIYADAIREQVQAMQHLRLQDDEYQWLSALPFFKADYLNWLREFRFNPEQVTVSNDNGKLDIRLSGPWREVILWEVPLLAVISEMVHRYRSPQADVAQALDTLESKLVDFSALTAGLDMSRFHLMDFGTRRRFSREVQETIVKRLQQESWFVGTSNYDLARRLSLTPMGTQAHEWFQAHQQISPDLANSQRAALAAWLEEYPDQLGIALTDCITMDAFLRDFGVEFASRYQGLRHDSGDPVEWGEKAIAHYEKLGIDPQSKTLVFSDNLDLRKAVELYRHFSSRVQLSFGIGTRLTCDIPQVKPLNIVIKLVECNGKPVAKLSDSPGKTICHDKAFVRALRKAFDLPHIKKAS
[A] 5.56

[Q] Identify the reported total protein half-life in vivo for the following entry. MIVLVTGATAGFGECITRRFIQQGHKVIATGRRQERLQELKDELGDNLYIAQLDVRNRAAIEEMLASLPAEWCNIDILVNNAGLALGMEPAHKASVEDWETMIDTNNKGLVYMTRAVLPGMVERNHGHIINIGSTAGSWPYAGGNVYGATKAFVRQFSLNLRTDLHGTAVRVTDIEPGLVGGTEFSNVRFKGDDGKAEKTYQNTVALTPEDVSEAVWWVSTLPAHVNINTLEMMPVTQSYAGLNVHRQ
[A] 10.8

[Q] Identify the reported total protein half-life in vivo for the following entry. MKTIHDIRRSNARKLRDGVGGNSSFATMIDREPTQTSRFMGDGATKNIGDSMARHIEKCFDLPVGWLDQEHQTTNITKKPDVSITNKQITLVPVISWVQAGAWKEVGYSEVDLSTAETYPCPVPCGEMTYILRVIGDSMIDEYRPGDMIFVDPEVPACHGDDVIALMHDTGETTFKRLIEDGTQRYLKALNPNWPEPYIKINGNCSIIGTVIFSGKPRRYKIKA
[A] 9.86

[Q] Identify the reported total protein half-life in vivo for the following entry. MIRFEHVSKAYLGGRQALQGVTFHMQPGEMAFLTGHSGAGKSTLLKLICGIERPSAGKIWFSGHDITRLKNREVPFLRRQIGMIFQDHHLLMDRTVYDNVAIPLIIAGASGDDIRRRVSAALDKVGLLDKAKNFPIQLSGGEQQRVGIARAVVNKPAVLLADEPTGNLDDALSEGILRLFEEFNRVGVTVLMATHDINLISRRSYRMLTLSDGHLHGGVGHE [P0A9R7]
[A] 10.1

[Q] Identify the reported total protein half-life in vivo for the following entry. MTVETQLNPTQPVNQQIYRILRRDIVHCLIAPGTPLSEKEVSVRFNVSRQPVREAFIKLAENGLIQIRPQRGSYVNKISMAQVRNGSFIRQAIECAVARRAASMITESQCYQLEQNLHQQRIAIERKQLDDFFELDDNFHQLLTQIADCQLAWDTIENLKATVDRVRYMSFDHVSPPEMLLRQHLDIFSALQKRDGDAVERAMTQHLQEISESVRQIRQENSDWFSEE [P0ACM2]
[A] 10.2

[Q] Identify the reported total protein half-life in vivo for the following entry. MLVWLAEHLVKYYSGFNVFSYLTFRAIVSLLTALFISLWMGPRMIAHLQKLSFGQVVRNDGPESHFSKRGTPTMGGIMILTAIVISVLLWAYPSNPYVWCVLVVLVGYGVIGFVDDYRKVVRKDTKGLIARWKYFWMSVIALGVAFALYLAGKDTPATQLVVPFFKDVMPQLGLFYILLAYFVIVGTGNAVNLTDGLDGLAIMPTVFVAGGFALVAWATGNMNFASYLHIPYLRHAGELVIVCTAIVGAGLGFLWFNTYPAQVFMGDVGSLALGGALGIIAVLLRQEFLLVIMGGVFVVETLSVILQVGSFKLRGQRIFRMAPIHHHYELKGWPEPRVIVRFWIISLMLVLIGLATLKVR [P0A6W3]
[A] 12.3
